test: Plasma concentration levels of cefixime and dicloxacillin formulation (Table 4); settings: in vivo
quantity.name: concentration at 3 h (ng/mL)
Answers are plain numbers, in ng/mL.

Prompt line: Look up concentration at 3 h: C=CC1=C(C(=O)O)N2C(=O)[C@@H](NC(=O)/C(=N\OCC(=O)O)c3csc(N)n3)[C@H]2SC1 [Cefixime]
Response line: 1620

----------
assay: in vivo
quantity.name: concentration at 0 h (ng/mL)
Give bare numbers, in ng/mL.

Prompt line: Which concentration at 0 h value is on record for "Cc1onc(-c2c(Cl)cccc2Cl)c1C(=O)N[C@@H]1C(=O)N2[C@@H]1SC(C)(C)[C@@H]2C(=O)O" ?
Response line: 0

----------
experiment: Plasma concentration levels of cefixime and dicloxacillin formulation (Table 4); settings: in vivo
quantity.name: concentration at 0.5 h (ng/mL)
Numbers only, in ng/mL.

Prompt line: I would be grateful if you could share the reported concentration at 0.5 h for "C=CC1=C(C(=O)O)N2C(=O)[C@@H](NC(=O)/C(=N\OCC(=O)O)c3csc(N)n3)[C@H]2SC1" .
Response line: 360

----------
assay: in vivo
quantity.name: concentration at 6 h (ng/mL)
Answers are plain numbers, in ng/mL.

Prompt line: Endpoint output: concentration at 6 h of Cc1onc(-c2c(Cl)cccc2Cl)c1C(=O)N[C@@H]1C(=O)N2[C@@H]1SC(C)(C)[C@@H]2C(=O)O [Dicloxacillin] . Value?
Response line: 4100

----------
test: Plasma concentration levels of cefixime and dicloxacillin formulation (Table 4); settings: in vivo
quantity.name: concentration at 1 h

Prompt line: Find the recorded concentration at 1 h belonging to "C=CC1=C(C(=O)O)N2C(=O)[C@@H](NC(=O)/C(=N\OCC(=O)O)c3csc(N)n3)[C@H]2SC1" and report it.
Response line: 520 ng/mL

----------
experiment: in vivo
quantity.name: concentration at 20 h (ng/mL)
Numbers only, in ng/mL.

Prompt line: Entry under review: Cc1onc(-c2c(Cl)cccc2Cl)c1C(=O)N[C@@H]1C(=O)N2[C@@H]1SC(C)(C)[C@@H]2C(=O)O [Dicloxacillin] . Reported concentration at 20 h?
Response line: 0

----------
assay: in vivo
quantity.name: concentration at 2 h (ng/mL)
Give bare numbers, in ng/mL.

Prompt line: Please look up its concentration at 2 h: "Cc1onc(-c2c(Cl)cccc2Cl)c1C(=O)N[C@@H]1C(=O)N2[C@@H]1SC(C)(C)[C@@H]2C(=O)O"
Response line: 2260

----------
experiment: Plasma concentration levels of cefixime and dicloxacillin formulation (Table 4); conditions: in vivo
quantity.name: concentration at 12 h

Prompt line: // lookup concentration at 12 h for "C=CC1=C(C(=O)O)N2C(=O)[C@@H](NC(=O)/C(=N\OCC(=O)O)c3csc(N)n3)[C@H]2SC1"
Response line: 500 ng/mL

----------
assay: Plasma concentration levels of cefixime and dicloxacillin formulation (Table 4); conditions: in vivo
quantity.name: concentration at 6 h (ng/mL)
One number for each entry, in ng/mL.

Prompt line: GET /values?readout=concentration at 6 h&item= "C=CC1=C(C(=O)O)N2C(=O)[C@@H](NC(=O)/C(=N\OCC(=O)O)c3csc(N)n3)[C@H]2SC1"
Response line: 1560

----------
experiment: Plasma concentration levels of cefixime and dicloxacillin formulation (Table 4); conditions: in vivo
quantity.name: concentration at 4 h (ng/mL)
Give bare numbers, in ng/mL.

Prompt line: Param item = "C=CC1=C(C(=O)O)N2C(=O)[C@@H](NC(=O)/C(=N\OCC(=O)O)c3csc(N)n3)[C@H]2SC1" ; retrieve measured concentration at 4 h.
Response line: 1840

----------
test: Plasma concentration levels of cefixime and dicloxacillin formulation (Table 4); conditions: in vivo
quantity.name: concentration at 2 h (ng/mL)
Give bare numbers, in ng/mL.

Prompt line: For the molecule shown here, C=CC1=C(C(=O)O)N2C(=O)[C@@H](NC(=O)/C(=N\OCC(=O)O)c3csc(N)n3)[C@H]2SC1 [Cefixime] , give the reported concentration at 2 h.
Response line: 1340

----------
assay: Plasma concentration levels of cefixime and dicloxacillin formulation (Table 4); details: in vivo
quantity.name: concentration at 24 h (ng/mL)
One number for each entry, in ng/mL.

Prompt line: Given the entry "C=CC1=C(C(=O)O)N2C(=O)[C@@H](NC(=O)/C(=N\OCC(=O)O)c3csc(N)n3)[C@H]2SC1" , report its measured concentration at 24 h.
Response line: 0

----------
test: Plasma concentration levels of cefixime and dicloxacillin formulation (Table 4); conditions: in vivo
quantity.name: concentration at 8 h (ng/mL)
One number for each entry, in ng/mL.

Prompt line: concentration at 8 h lookup needed for C=CC1=C(C(=O)O)N2C(=O)[C@@H](NC(=O)/C(=N\OCC(=O)O)c3csc(N)n3)[C@H]2SC1 [Cefixime] , thanks.
Response line: 980

----------
assay: Plasma concentration levels of cefixime and dicloxacillin formulation (Table 4); details: in vivo
quantity.name: concentration at 0 h (µg/mL)
Numbers only, in µg/mL.

Prompt line: Find the recorded concentration at 0 h belonging to C=CC1=C(C(=O)O)N2C(=O)[C@@H](NC(=O)/C(=N\OCC(=O)O)c3csc(N)n3)[C@H]2SC1 [Cefixime] and report it.
Response line: 0

----------
assay: Plasma concentration levels of cefixime and dicloxacillin formulation (Table 4); settings: in vivo
quantity.name: concentration at 20 h (ng/mL)
One number for each entry, in ng/mL.

Prompt line: Any idea what its concentration at 20 h is? The molecule is C=CC1=C(C(=O)O)N2C(=O)[C@@H](NC(=O)/C(=N\OCC(=O)O)c3csc(N)n3)[C@H]2SC1 [Cefixime]
Response line: 0

----------
experiment: Plasma concentration levels of cefixime and dicloxacillin formulation (Table 4); conditions: in vivo
quantity.name: concentration at 14 h (ng/mL)
Give bare numbers, in ng/mL.

Prompt line: Quick check: concentration at 14 h of C=CC1=C(C(=O)O)N2C(=O)[C@@H](NC(=O)/C(=N\OCC(=O)O)c3csc(N)n3)[C@H]2SC1 [Cefixime] ?
Response line: 350
